target: Transient receptor potential cation channel subfamily V member 1 (Rattus norvegicus); experiment: Antagonist activity at TRPV1 in Sprague-Dawley rat DRG neuron assessed as reduction of capsaicin-stimulated 45Ca2+ uptake
measuredMetric: IC50 (nM)

For this compound ( `CC1(C)CCC(C)(C)c2cc(CCC(=O)NCc3ccc(NS(C)(=O)=O)c(F)c3)ccc21` ), measured IC50 is 180

A. CC(C)(C)c1cc(/C=C/C(=O)NCc2ccc(NS(C)(=O)=O)c(F)c2)c2c(c1)CCO2
B. CC(C)(C)c1cc2c(c(CCC(=O)NCc3ccc(NS(C)(=O)=O)c(F)c3)c1)OCCC2
Query: Lowest IC50? choose A or B State the label of the item chosen.
Result: B

1. CC(C)Cc1ccc(CCC(=O)NCc2ccc(NS(C)(=O)=O)c(F)c2)cc1
2. CC(C)(C)c1ccc(CNC(=O)CCc2ccc(NS(C)(=O)=O)c(F)c2)cc1
3. CS(=O)(=O)Nc1ccc(CNC(=O)CCc2ccc(C(F)(F)F)cc2)cc1F
4. CC(C)(C)c1cc(CCC(=O)NCc2ccc(NS(C)(=O)=O)c(F)c2)cc(C(C)(C)C)c1
Query: # rank_down: sort by IC50, max first Your task in answering is to list the labels in the requested order.
Result: 3, 2, 1, 4

====

target: Transient receptor potential cation channel subfamily V member 1 (Rattus norvegicus, UniProt O35433); assay: Antagonist activity at TRPV1 in Sprague-Dawley rat DRG neuron assessed as reduction of capsaicin-stimulated 45Ca2+ uptake
Sequence (O35433 whole entry): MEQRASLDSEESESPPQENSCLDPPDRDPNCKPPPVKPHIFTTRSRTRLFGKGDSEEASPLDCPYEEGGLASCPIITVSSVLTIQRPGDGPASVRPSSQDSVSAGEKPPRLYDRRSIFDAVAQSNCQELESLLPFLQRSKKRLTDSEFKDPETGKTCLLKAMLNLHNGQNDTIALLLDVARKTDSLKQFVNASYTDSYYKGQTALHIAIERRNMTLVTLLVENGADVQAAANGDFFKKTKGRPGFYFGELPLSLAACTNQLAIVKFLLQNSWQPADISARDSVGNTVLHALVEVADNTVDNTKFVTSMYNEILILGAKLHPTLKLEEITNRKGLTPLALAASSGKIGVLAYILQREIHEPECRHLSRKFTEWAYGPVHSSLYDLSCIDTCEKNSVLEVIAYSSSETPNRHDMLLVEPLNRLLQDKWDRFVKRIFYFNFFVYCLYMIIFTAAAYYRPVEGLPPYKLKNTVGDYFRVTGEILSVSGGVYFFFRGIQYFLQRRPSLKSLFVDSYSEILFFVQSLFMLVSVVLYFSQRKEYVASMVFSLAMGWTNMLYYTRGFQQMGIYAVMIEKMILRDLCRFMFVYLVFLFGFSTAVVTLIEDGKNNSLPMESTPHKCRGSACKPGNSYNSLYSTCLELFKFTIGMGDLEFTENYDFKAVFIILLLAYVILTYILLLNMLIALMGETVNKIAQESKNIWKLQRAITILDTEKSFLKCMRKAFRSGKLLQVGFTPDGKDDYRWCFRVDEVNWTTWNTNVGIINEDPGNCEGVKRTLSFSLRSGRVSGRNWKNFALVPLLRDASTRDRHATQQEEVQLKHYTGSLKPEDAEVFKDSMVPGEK
pIC50: −log10 of the molar value.
measuredMetric: pIC50

Take a look at these entries with their results.
For this compound ( `CC1(C)CCc2cc(/C=C/C(=O)NCc3ccc(NS(C)(=O)=O)c(F)c3)ccc2O1` ), measured pIC50 is 5.85

For this compound ( `CC(C)(C)c1cc(/C=C/C(=O)NCc2ccc(NS(C)(=O)=O)c(F)c2)c2c(c1)CCCO2` ), measured pIC50 is 6.04

For this compound ( `CC1(C)Cc2cc(/C=C/C(=O)NCc3ccc(NS(C)(=O)=O)c(F)c3)ccc2O1` ), measured pIC50 is 5.37

For this compound ( `CC(C)(C)c1ccc(CCC(=O)NCc2ccc(NS(C)(=O)=O)c(F)c2)cc1` ), measured pIC50 is 6.77

I. CS(=O)(=O)Nc1ccc(CNC(=O)CCc2cc(C(F)(F)F)cc(C(F)(F)F)c2)cc1F
II. CC1(c2ccc(CCC(=O)NCc3cc(F)c(NS(C)(=O)=O)c(C#N)c3)cc2)CC1
III. CC1(C)CCC(C)(C)c2cc(CCC(=O)NCc3cc(F)c(NS(C)(=O)=O)c(C#N)c3)ccc21
IV. CC1(c2ccc(/C=C/C(=O)NCc3ccc(NS(C)(=O)=O)c(F)c3)cc2)CC1
Query: # rank_down: sort by pIC50, max first Your task in answering is to list the labels in the requested order.
Result: III, II, IV, I
(III: 7.24, II: 6.68, IV: 6.41, I: 5.60)

====

target: Transient receptor potential cation channel subfamily V member 1 (Rattus norvegicus, UniProt O35433); assay: Antagonist activity at TRPV1 in Sprague-Dawley rat DRG neuron assessed as reduction of capsaicin-stimulated 45Ca2+ uptake
measuredMetric: IC50 (µM)

For this compound ( `CC(C)(C)c1cc2c(c(CCC(=O)NCc3ccc(NS(C)(=O)=O)c(F)c3)c1)OCC2` ), measured IC50 is 5

For this compound ( `CC1(C)CCC(C)(C)c2cc(/C=C/C(=O)NCc3ccc(NS(C)(=O)=O)c(F)c3)ccc21` ), measured IC50 is 0.34

For this compound ( `CC(C)(C)c1ccc(CCC(=O)NCc2cc(F)c(NS(C)(=O)=O)c(C#N)c2)cc1` ), measured IC50 is 0.085

For this compound ( `CS(=O)(=O)Nc1ccc(CNC(=O)CCc2ccc(CC3CC3)cc2)cc1F` ), measured IC50 is 0.36

A. CC(C)(C)c1ccc(CNC(=O)NCc2ccc(NS(C)(=O)=O)c(F)c2)cc1
B. CC1(C)CCc2cc(CCC(=O)NCc3ccc(NS(C)(=O)=O)c(F)c3)ccc2O1
Query: // max by IC50 over [ A , B ] State the label of the item chosen.
Result: B
(B: 7.2 µM, A: 0.71 µM)
